Data provenance is ChEMBL document CHEMBL1165965.

# assay.target: NUAK family SNF1-like kinase 2 (Homo sapiens) (UniProt Q9H093)
# Sequence (Q9H093 whole entry): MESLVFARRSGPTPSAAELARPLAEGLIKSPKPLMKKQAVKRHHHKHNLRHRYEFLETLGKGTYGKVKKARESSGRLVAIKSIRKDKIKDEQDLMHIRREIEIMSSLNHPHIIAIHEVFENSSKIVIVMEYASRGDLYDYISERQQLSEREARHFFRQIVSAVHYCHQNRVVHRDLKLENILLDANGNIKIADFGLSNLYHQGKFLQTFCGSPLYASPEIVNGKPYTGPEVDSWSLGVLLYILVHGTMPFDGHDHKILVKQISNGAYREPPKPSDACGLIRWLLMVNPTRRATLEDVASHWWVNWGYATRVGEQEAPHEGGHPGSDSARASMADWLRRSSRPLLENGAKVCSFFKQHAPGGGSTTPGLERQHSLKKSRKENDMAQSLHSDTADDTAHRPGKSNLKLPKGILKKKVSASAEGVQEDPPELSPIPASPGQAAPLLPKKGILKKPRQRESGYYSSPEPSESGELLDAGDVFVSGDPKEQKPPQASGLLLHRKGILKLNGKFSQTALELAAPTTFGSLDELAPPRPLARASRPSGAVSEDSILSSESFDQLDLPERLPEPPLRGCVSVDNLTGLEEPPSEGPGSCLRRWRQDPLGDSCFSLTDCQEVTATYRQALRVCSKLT
# method.notes: Inhibition of SNARK at 1 uM
inhibition: recorded values

chemical.structure: CN1CCN(c2ccc(-c3cnc4c(c3)N(Cc3cc(Cl)ccc3C(F)(F)F)CCN4)cn2)CC1
inhibition: 85%
//
chemical.structure: CC(=O)N1CCN(c2cc(-c3cnc4c(c3)N(Cc3cc(Cl)ccc3C(F)(F)F)CCN4)ccn2)CC1
inhibition: 71%
//
chemical.structure: CN1CCN(c2ccc(-c3cnc4c(c3)N(Cc3c(F)ccc(F)c3Cl)CCN4)cn2)CC1
inhibition: 90%
//
chemical.structure: CN1CCN(c2ccc(-c3cnc4c(c3)N(Cc3cc(Cl)ccc3Cl)CCN4)cn2)CC1
inhibition: 81%
//
chemical.structure: CN1CCN(c2ccc(-c3cnc4c(c3)N(Cc3cc(F)ccc3F)CCN4)cn2)CC1
inhibition: 90%
//
chemical.structure: FC(F)(F)c1ccc(Cl)cc1CN1CCNc2ncc(-c3ccnc(N4CCNCC4)c3)cc21
inhibition: 93%

* * *

inhibition: recorded values
# assay.target: Tyrosine-protein kinase FRK (Homo sapiens)
# method.notes: Inhibition of FRK at 1 uM

chemical.structure: COC1CCN(C(=O)c2ccc(-c3cnc4c(c3)N(Cc3cc(Cl)ccc3C(F)(F)F)CCN4)cc2)CC1
assay.target: Tyrosine-protein kinase FRK (Homo sapiens)
inhibition: < 50%

chemical.structure: CN1CCN(c2ccc(-c3cnc4c(c3)N(Cc3cc(Cl)ccc3C(F)(F)F)CCN4)cn2)CC1
assay.target: Tyrosine-protein kinase FRK (Homo sapiens)
inhibition: < 50%

chemical.structure: O=C(c1ccc(-c2cnc3c(c2)N(Cc2cc(Cl)ccc2C(F)(F)F)CCN3)cc1)N1CCCCC1
assay.target: Tyrosine-protein kinase FRK (Homo sapiens)
inhibition: < 50%

chemical.structure: CN1CCN(c2ccc(-c3cnc4c(c3)N(Cc3c(F)ccc(F)c3Cl)CCN4)cn2)CC1
assay.target: Tyrosine-protein kinase FRK (Homo sapiens)
inhibition: 66%

chemical.structure: CN1CCN(c2ccc(-c3cnc4c(c3)N(Cc3cc(F)ccc3F)CCN4)cn2)CC1
assay.target: Tyrosine-protein kinase FRK (Homo sapiens)
inhibition: < 50%

* * *

# assay.target: Phosphatidylinositol 4,5-bisphosphate 3-kinase catalytic subunit delta isoform (Homo sapiens)
# method.notes: Inhibition of PIK3CD at 1 uM
inhibition: recorded values
recorded.metric: inhibition

chemical.structure: CN1CCN(c2ccc(-c3cnc4c(c3)N(Cc3cc(Cl)ccc3C(F)(F)F)CCN4)cn2)CC1
recorded.metric: inhibition
result: < 50%
--
chemical.structure: CN1CCN(c2ccc(-c3cnc4c(c3)N(Cc3c(F)ccc(F)c3Cl)CCN4)cn2)CC1
recorded.metric: inhibition
result: < 50%
--
chemical.structure: CC(=O)N1CCN(c2cc(-c3cnc4c(c3)N(Cc3cc(Cl)ccc3C(F)(F)F)CCN4)ccn2)CC1
recorded.metric: inhibition
result: < 50%
--
chemical.structure: FC(F)(F)c1ccc(Cl)cc1CN1CCNc2ncc(-c3ccnc(N4CCNCC4)c3)cc21
recorded.metric: inhibition
result: < 50%
--
chemical.structure: CN1CCN(c2ccc(-c3cnc4c(c3)N(Cc3cc(Cl)ccc3Cl)CCN4)cn2)CC1
recorded.metric: inhibition
result: < 50%
--
chemical.structure: CN1CCN(c2ccc(-c3cnc4c(c3)N(Cc3cc(F)ccc3F)CCN4)cn2)CC1
recorded.metric: inhibition
result: < 50%

* * *

inhibition: recorded values
# assay.target: UniProt:Q15303
# Sequence (Q15303 whole entry): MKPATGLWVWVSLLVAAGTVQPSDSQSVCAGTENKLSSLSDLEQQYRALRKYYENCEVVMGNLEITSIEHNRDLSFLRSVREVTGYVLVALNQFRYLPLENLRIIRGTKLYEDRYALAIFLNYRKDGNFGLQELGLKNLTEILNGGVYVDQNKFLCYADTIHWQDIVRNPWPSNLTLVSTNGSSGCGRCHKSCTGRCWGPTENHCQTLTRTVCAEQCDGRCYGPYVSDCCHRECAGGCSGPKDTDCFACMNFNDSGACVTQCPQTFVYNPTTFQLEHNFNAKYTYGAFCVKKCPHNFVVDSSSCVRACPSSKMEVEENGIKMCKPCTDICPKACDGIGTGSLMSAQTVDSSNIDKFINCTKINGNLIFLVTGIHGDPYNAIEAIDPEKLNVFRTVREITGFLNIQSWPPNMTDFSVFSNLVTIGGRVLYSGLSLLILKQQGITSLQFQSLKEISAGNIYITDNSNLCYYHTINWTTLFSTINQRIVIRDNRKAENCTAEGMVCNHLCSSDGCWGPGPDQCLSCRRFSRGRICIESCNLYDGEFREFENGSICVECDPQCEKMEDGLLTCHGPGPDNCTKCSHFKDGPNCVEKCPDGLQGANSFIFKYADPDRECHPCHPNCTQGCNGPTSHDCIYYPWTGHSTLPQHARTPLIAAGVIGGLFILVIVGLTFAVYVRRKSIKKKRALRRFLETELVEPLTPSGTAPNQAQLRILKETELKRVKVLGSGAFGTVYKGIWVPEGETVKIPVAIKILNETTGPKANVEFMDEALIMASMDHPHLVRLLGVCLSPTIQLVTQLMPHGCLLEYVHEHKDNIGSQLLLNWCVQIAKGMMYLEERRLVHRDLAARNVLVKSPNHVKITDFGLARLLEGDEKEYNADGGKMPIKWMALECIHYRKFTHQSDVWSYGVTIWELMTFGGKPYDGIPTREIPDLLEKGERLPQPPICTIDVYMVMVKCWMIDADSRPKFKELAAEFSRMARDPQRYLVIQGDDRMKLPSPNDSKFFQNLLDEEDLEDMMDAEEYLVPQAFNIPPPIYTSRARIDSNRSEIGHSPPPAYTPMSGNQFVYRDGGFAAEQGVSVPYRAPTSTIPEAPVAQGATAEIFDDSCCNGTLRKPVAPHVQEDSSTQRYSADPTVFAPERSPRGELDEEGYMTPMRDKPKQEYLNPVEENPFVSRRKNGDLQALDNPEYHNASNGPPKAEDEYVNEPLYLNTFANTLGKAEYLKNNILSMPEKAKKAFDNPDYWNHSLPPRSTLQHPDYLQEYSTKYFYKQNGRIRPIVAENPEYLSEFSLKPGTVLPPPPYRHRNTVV
# method.notes: Inhibition of ERBB4 at 1 uM

chemical.structure: FC(F)(F)c1ccc(Cl)cc1CN1CCNc2ncc(-c3ccnc(N4CCNCC4)c3)cc21
inhibition: < 50%
--
chemical.structure: O=C(O)c1ccc(-c2cnc3c(c2)N(Cc2cc(Cl)ccc2C(F)(F)F)CCN3)cc1
inhibition: < 50%
--
chemical.structure: COC1CCN(C(=O)c2ccc(-c3cnc4c(c3)N(Cc3cc(Cl)ccc3C(F)(F)F)CCN4)cc2)CC1
inhibition: < 50%
--
chemical.structure: O=C(c1ccc(-c2cnc3c(c2)N(Cc2cc(Cl)ccc2C(F)(F)F)CCN3)cc1)N1CCCCC1
inhibition: < 50%
--
chemical.structure: O=C(c1ccc(-c2cnc3c(c2)N(Cc2cc(Cl)ccc2C(F)(F)F)CCN3)cc1)N1CCC(N2CCCC2)CC1
inhibition: < 50%
--
chemical.structure: CN1CCN(c2ccc(-c3cnc4c(c3)N(Cc3cc(Cl)ccc3Cl)CCN4)cn2)CC1
inhibition: < 50%
--
chemical.structure: CN1CCN(c2ccc(-c3cnc4c(c3)N(Cc3c(F)ccc(F)c3Cl)CCN4)cn2)CC1
inhibition: < 50%
--
chemical.structure: CC(=O)N1CCN(c2cc(-c3cnc4c(c3)N(Cc3cc(Cl)ccc3C(F)(F)F)CCN4)ccn2)CC1
inhibition: < 50%
--
chemical.structure: CN1CCN(c2ccc(-c3cnc4c(c3)N(Cc3cc(F)ccc3F)CCN4)cn2)CC1
inhibition: < 50%
--
chemical.structure: CN1CCN(c2ccc(-c3cnc4c(c3)N(Cc3cc(Cl)ccc3C(F)(F)F)CCN4)cn2)CC1
inhibition: < 50%

* * *

# assay.target: Ephrin type-B receptor 6 (Homo sapiens) (UniProt O15197)
# Sequence (O15197 whole entry): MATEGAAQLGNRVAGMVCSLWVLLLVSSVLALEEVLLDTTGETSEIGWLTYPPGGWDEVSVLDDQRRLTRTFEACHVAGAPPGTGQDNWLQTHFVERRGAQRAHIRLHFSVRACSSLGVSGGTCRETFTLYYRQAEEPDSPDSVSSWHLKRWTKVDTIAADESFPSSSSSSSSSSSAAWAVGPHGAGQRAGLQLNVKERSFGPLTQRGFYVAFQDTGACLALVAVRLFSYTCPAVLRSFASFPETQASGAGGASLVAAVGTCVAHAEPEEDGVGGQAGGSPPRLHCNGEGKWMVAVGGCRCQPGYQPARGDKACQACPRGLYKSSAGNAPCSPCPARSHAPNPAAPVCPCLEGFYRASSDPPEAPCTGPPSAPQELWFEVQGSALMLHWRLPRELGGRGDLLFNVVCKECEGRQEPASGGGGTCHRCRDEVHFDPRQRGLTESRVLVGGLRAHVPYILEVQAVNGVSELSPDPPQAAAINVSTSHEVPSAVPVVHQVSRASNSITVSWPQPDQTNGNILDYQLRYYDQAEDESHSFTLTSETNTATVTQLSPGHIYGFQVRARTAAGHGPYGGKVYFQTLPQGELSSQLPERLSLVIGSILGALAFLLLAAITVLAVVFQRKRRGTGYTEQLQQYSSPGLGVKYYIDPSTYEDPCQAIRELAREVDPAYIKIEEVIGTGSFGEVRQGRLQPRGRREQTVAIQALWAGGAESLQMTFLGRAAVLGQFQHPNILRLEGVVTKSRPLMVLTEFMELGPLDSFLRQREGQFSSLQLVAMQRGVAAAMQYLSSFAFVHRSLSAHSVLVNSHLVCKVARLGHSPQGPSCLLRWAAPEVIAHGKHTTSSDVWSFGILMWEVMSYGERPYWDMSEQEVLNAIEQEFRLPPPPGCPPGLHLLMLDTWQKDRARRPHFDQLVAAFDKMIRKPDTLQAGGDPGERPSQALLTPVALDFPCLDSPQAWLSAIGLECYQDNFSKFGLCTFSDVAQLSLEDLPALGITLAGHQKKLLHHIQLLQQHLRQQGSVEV
# method.notes: Inhibition of EPHB6 at 1 uM
Returns one of Criterion met or Criterion not met; Criterion met when inhibition is >= 90%.

chemical.structure: CN1CCN(c2ccc(-c3cnc4c(c3)N(Cc3cc(F)ccc3F)CCN4)cn2)CC1
category.label: Criterion not met
//
chemical.structure: CN1CCN(c2ccc(-c3cnc4c(c3)N(Cc3c(F)ccc(F)c3Cl)CCN4)cn2)CC1
category.label: Criterion met
//
chemical.structure: CN1CCN(c2ccc(-c3cnc4c(c3)N(Cc3cc(Cl)ccc3Cl)CCN4)cn2)CC1
category.label: Criterion not met
//
chemical.structure: FC(F)(F)c1ccc(Cl)cc1CN1CCNc2ncc(-c3ccnc(N4CCNCC4)c3)cc21
category.label: Criterion met

* * *

# assay.target: Activin receptor type-1-like (Homo sapiens)
# method.notes: Inhibition of ACVRL1 at 1 uM

chemical.structure: CN1CCN(c2ccc(-c3cnc4c(c3)N(Cc3cc(Cl)ccc3C(F)(F)F)CCN4)cn2)CC1
assay.target: Activin receptor type-1-like (Homo sapiens)
inhibition: < 50%
--
chemical.structure: O=C(c1ccc(-c2cnc3c(c2)N(Cc2cc(Cl)ccc2C(F)(F)F)CCN3)cc1)N1CCC(N2CCCC2)CC1
assay.target: Activin receptor type-1-like (Homo sapiens)
inhibition: < 50%
--
chemical.structure: CN1CCN(c2ccc(-c3cnc4c(c3)N(Cc3cc(Cl)ccc3Cl)CCN4)cn2)CC1
assay.target: Activin receptor type-1-like (Homo sapiens)
inhibition: < 50%
--
chemical.structure: O=C(c1ccc(-c2cnc3c(c2)N(Cc2cc(Cl)ccc2C(F)(F)F)CCN3)cc1)N1CCCCC1
assay.target: Activin receptor type-1-like (Homo sapiens)
inhibition: < 50%
--
chemical.structure: COC1CCN(C(=O)c2ccc(-c3cnc4c(c3)N(Cc3cc(Cl)ccc3C(F)(F)F)CCN4)cc2)CC1
assay.target: Activin receptor type-1-like (Homo sapiens)
inhibition: < 50%

* * *

# assay.target: Tyrosine-protein kinase JAK1 (Homo sapiens) (UniProt P23458)
# Sequence (P23458 whole entry, the tested form may be a part): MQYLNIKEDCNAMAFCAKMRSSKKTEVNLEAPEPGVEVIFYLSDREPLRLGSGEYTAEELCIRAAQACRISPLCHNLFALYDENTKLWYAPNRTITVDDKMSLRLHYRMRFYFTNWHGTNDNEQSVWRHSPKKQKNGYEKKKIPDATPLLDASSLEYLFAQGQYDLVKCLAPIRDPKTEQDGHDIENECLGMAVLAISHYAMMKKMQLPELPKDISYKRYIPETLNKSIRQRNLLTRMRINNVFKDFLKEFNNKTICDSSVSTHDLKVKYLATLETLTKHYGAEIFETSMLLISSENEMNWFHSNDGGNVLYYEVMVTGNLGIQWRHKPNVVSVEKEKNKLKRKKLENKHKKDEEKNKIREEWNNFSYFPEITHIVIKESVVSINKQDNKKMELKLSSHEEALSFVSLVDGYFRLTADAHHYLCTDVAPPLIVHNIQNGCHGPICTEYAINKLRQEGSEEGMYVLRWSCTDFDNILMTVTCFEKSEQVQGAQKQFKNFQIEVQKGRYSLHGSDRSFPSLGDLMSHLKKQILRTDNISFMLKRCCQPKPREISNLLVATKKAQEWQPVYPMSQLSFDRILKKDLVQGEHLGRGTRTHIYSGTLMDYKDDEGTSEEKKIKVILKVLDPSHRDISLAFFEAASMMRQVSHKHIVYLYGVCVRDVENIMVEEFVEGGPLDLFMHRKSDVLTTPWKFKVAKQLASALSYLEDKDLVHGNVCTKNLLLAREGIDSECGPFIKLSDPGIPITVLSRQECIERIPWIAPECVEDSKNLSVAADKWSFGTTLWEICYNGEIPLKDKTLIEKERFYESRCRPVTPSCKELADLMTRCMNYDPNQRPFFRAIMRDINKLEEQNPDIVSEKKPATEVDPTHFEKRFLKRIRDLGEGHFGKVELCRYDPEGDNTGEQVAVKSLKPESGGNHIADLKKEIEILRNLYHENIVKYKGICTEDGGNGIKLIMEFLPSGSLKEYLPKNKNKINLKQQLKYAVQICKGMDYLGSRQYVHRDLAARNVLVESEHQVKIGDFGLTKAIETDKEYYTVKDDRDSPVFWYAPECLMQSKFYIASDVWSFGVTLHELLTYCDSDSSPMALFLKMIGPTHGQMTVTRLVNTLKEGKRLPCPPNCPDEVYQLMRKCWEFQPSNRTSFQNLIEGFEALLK
# method.notes: Inhibition of JAK1 JH1 catalytic domain at 1 uM
inhibition: recorded values

chemical.structure: CN1CCN(c2ccc(-c3cnc4c(c3)N(Cc3c(F)ccc(F)c3Cl)CCN4)cn2)CC1
prefix.operator: <
inhibition, %: 50
--
chemical.structure: O=C(c1ccc(-c2cnc3c(c2)N(Cc2cc(Cl)ccc2C(F)(F)F)CCN3)cc1)N1CCCCC1
prefix.operator: <
inhibition, %: 50
--
chemical.structure: FC(F)(F)c1ccc(Cl)cc1CN1CCNc2ncc(-c3ccnc(N4CCNCC4)c3)cc21
prefix.operator: =
inhibition, %: 78
--
chemical.structure: CN1CCN(c2ccc(-c3cnc4c(c3)N(Cc3cc(Cl)ccc3Cl)CCN4)cn2)CC1
prefix.operator: =
inhibition, %: 89
--
chemical.structure: CN1CCN(c2ccc(-c3cnc4c(c3)N(Cc3cc(Cl)ccc3C(F)(F)F)CCN4)cn2)CC1
prefix.operator: =
inhibition, %: 93

* * *

# assay.target: BDNF/NT-3 growth factors receptor (Homo sapiens)
# method.notes: Inhibition of TRKB at 1 uM
Returns one of satisfied or not satisfied; satisfied when inhibition is >= 70%.

chemical.structure: O=C(O)c1ccc(-c2cnc3c(c2)N(Cc2cc(Cl)ccc2C(F)(F)F)CCN3)cc1
category.label: not satisfied

chemical.structure: CC(=O)N1CCN(c2cc(-c3cnc4c(c3)N(Cc3cc(Cl)ccc3C(F)(F)F)CCN4)ccn2)CC1
category.label: satisfied

chemical.structure: O=C(c1ccc(-c2cnc3c(c2)N(Cc2cc(Cl)ccc2C(F)(F)F)CCN3)cc1)N1CCC(N2CCCC2)CC1
category.label: satisfied

chemical.structure: CN1CCN(c2ccc(-c3cnc4c(c3)N(Cc3cc(F)ccc3F)CCN4)cn2)CC1
category.label: not satisfied

chemical.structure: FC(F)(F)c1ccc(Cl)cc1CN1CCNc2ncc(-c3ccnc(N4CCNCC4)c3)cc21
category.label: satisfied

chemical.structure: O=C(c1ccc(-c2cnc3c(c2)N(Cc2cc(Cl)ccc2C(F)(F)F)CCN3)cc1)N1CCCCC1
category.label: not satisfied

chemical.structure: COC1CCN(C(=O)c2ccc(-c3cnc4c(c3)N(Cc3cc(Cl)ccc3C(F)(F)F)CCN4)cc2)CC1
category.label: not satisfied

chemical.structure: CN1CCN(c2ccc(-c3cnc4c(c3)N(Cc3cc(Cl)ccc3C(F)(F)F)CCN4)cn2)CC1
category.label: not satisfied
